- TARGET: LRRK2(G2019S mutation, GST-LRRK2(amino acids 970-2527)) (Homo sapiens, UniProt Q5S007, G2019S)
- Construct: GST-LRRK2(amino acids 970-2527); GST (N); purchased Life Technologies Corporation
- Sequence (Q5S007 970-2527 G2019S): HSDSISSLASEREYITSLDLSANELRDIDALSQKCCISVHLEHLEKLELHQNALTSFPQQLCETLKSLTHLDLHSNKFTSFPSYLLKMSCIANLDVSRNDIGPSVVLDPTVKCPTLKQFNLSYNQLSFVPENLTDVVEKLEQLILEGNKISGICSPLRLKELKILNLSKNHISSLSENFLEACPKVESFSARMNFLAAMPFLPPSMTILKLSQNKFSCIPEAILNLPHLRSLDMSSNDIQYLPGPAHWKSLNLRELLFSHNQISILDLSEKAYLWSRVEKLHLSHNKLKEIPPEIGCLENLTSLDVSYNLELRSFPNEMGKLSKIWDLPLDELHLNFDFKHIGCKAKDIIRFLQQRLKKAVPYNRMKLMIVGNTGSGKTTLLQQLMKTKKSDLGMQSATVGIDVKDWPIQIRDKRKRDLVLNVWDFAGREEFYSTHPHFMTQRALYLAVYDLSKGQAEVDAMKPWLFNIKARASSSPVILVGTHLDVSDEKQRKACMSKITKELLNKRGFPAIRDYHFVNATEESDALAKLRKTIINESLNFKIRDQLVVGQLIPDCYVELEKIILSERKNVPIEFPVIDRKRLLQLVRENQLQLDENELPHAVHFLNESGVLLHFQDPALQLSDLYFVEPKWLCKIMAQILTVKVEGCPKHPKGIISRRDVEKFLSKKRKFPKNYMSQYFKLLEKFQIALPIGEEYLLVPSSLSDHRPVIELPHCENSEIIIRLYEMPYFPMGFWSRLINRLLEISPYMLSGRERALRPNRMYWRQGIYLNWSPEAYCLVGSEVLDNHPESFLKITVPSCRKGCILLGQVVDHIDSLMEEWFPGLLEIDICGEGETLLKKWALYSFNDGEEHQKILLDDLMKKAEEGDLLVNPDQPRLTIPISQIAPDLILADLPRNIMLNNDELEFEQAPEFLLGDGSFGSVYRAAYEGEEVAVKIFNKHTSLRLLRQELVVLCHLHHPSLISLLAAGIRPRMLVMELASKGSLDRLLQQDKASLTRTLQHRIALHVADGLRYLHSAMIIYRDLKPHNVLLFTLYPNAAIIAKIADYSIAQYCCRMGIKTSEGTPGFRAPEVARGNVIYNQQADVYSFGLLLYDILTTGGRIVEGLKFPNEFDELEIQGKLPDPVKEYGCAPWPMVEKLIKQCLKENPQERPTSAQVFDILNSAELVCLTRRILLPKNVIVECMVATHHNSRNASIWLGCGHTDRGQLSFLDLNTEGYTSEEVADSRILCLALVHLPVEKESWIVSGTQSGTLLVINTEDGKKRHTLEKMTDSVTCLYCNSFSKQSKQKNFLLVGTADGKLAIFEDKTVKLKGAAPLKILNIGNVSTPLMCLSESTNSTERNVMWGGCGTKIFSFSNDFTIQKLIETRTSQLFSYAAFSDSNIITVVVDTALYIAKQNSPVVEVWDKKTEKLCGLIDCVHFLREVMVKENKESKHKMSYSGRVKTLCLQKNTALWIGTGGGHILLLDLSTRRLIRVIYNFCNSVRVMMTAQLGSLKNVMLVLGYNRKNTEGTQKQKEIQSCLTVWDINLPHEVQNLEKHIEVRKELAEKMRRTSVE
- ASSAY_OVERVIEW: LRRK2 Km ATP LanthaScreen Assay
- Type: biochemical
- PROTOCOL_CONDITIONS: Km ATP LanthaScreen Assay; LRRK2 G2019S; mean IC50 values; Examples 185-215; read-out: LRRK2 IC5)
Friendly reminder: IC50 below 0.01 µM is criterion met, at or above is criterion not met.

- CC(C)Oc1ccc2[nH]nc(-c3ccnc(N4CC(n5cccn5)C4)c3)c2c1 [Example 190]: criterion not met
- Cc1nnc(C2CCN(c3cc(-c4n[nH]c5ccc(OC(C)C)cc45)ccn3)CC2)o1 [Example 215]: criterion met
- CC(C)Oc1ccc2[nH]nc(-c3ccnc(N4CCCS(=O)(=O)CC4)c3)c2c1 [Example 188]: criterion not met
- CC(C)Oc1ccc2[nH]nc(-c3ccnc(N4CCN(c5nccs5)CC4)c3)c2c1 [Example 203]: criterion not met
- Cc1nonc1N1CCN(c2cc(-c3n[nH]c4ccc(OC(C)C)cc34)ccn2)CC1 [Example 207]: criterion not met

====

- TARGET: LRRK2(G2019S mutation, GST-LRRK2(amino acids 970-2527)) (Homo sapiens, UniProt Q5S007, G2019S)
- Construct: GST-LRRK2(amino acids 970-2527); GST (N); purchased Life Technologies Corporation
- ASSAY_OVERVIEW: LRRK2 Km ATP LanthaScreen Assay
- Assay type: biochemical
- PROTOCOL_CONDITIONS: Km ATP LanthaScreen; mean IC50 of several tests; read-out: LRRK2 IC50
pIC50: −log10 of the molar value.
Each entry below carries its reported pIC50.
MEASURE_NAME: pIC50

• Cn1cnnc1-c1ccc2[nH]nc(-c3ccnc(N4CCOCC4)c3)c2c1 [Ex 341] = 8.85
• CN1CCN(c2cc(-c3n[nH]c4ccc(-c5cnn(C)c5)cc34)ccn2)CC1=O [Example 279] = 8.54
• Fc1cnc(-c2ccc3[nH]nc(-c4ccnc(N5CCOCC5)c4)c3c2)nc1 [Example 337] = 7.38
• CC(C)Oc1ccc2[nH]nc(-c3ccnc(N4CCC(F)(F)CC4)c3)c2c1 [Example 287] = 7.85
• CC(C)Oc1ccc2[nH]nc(-c3ccnc(N4CCC(O)CC4)c3)c2c1 [Example 285] = 8.42
• OCc1cc2c(-c3ccnc(N4CCOCC4)c3)n[nH]c2cc1F [Example 347] = 7.42

====

- TARGET: LRRK2(G2019S mutation, GST-LRRK2(amino acids 970-2527)) (Homo sapiens, UniProt Q5S007, G2019S)
- Construct: GST-LRRK2(amino acids 970-2527); GST (N); purchased Life Technologies Corporation
- ASSAY_OVERVIEW: LRRK2 Km ATP LanthaScreen Assay
- Format: biochemical
- PROTOCOL_CONDITIONS: Km ATP LanthaScreen; mean IC50 of several tests; read-out: LRRK2 IC50
- Experimental: Unless otherwise noted, all LRRK2 IC50 data presented in tables refers to the LRRK2 Km ATP LanthaScreen™ Assay that is described in the Biological Assay section. The data presented for the 5 mM and Km ATP LanthaScreen™ Assay represents mean IC50 values based on several test results and may have reasonable. deviations depending on the specific conditions and reagents used. […] Results are analysed using Assay Data Analyzer.
MEASURE_NAME: IC50

• CCCOc1ccc2[nH]nc(-c3ccnc(N4CCN(C)CC4)c3)c2c1 = 17 nM
• CC(C)Oc1ccc2[nH]nc(-c3ccnc(NS(=O)(=O)c4ccc(C(C)(C)C#N)cc4)c3)c2c1 = 68.8 nM
• CC(C)Oc1ccc2[nH]nc(-c3ccnc(N4CCN(C)CC4)c3)c2c1 = 0.75 nM
• COc1ccnc(F)c1-c1ccc2[nH]nc(-c3ccnc(N4CCOCC4)c3)c2c1 = 3.4 nM
• FCOc1ccc2[nH]nc(-c3ccnc(N4CCOCC4)c3)c2c1 = 10.2 nM
• CCOc1ccc2[nH]nc(-c3ccnc(N4CC(O)(C(F)(F)F)C4)c3)c2c1 = < 0.6 nM
• CC(C)Oc1ccc2[nH]nc(-c3ccnc(N4CCOCC4)c3)c2c1 = 1.9 nM
• OCCc1ccc2[nH]nc(-c3ccnc(N4CCOCC4)c3)c2c1 = 30 nM
• Cc1ccc2c(-c3ccnc(N4CCOCC4)c3)n[nH]c2c1 = 35 nM
• Oc1ccc(-c2ccc3[nH]nc(-c4ccnc(N5CCOCC5)c4)c3c2)cn1 = 39 nM
• COc1ccnc(F)c1-c1ccc2[nH]nc(-c3ccnc(N4CCN(C(C)=O)CC4)c3)c2c1 = < 0.6 nM
• COC(=O)c1ccc2[nH]nc(-c3ccnc(N4CCOCC4)c3)c2c1 = 15 nM
• Oc1ccnc(F)c1-c1ccc2[nH]nc(-c3ccnc(N4CCOCC4)c3)c2c1 = 34 nM
• COCCOc1ccc2[nH]nc(-c3ccnc(N4CCOCC4)c3)c2c1 = 70 nM
• c1ccc(Cc2ccc3[nH]nc(-c4ccnc(N5CCOCC5)c4)c3c2)cc1 = 45 nM
• c1ccc(-c2ccc3c(-c4ccnc(N5CCOCC5)c4)n[nH]c3c2)cc1 = 34 nM
• COc1ccncc1-c1ccc2[nH]nc(-c3ccnc(N4CCOCC4=O)c3)c2c1 = 17 nM
• Cn1cc(-c2ccc3[nH]nc(-c4ccnc(N5CCN(c6nnc(C7CC7)o6)CC5)c4)c3c2)cn1 = 2.7 nM
